target: hGIPR (Homo sapiens); test: Functional cAMP activation in the presence of 0.1% casein (no HSA); type: cell-based; conditions: read-out: Relative cAMP EC50, hGIPR;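 also: intracellular cAMP rise after 30 min at 37 °C read by HTRF against a standard curve, scaled between buffer alone (0%) and top control ligand concentration (100%), four-parameter fit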
Sequence (P48546 22-466): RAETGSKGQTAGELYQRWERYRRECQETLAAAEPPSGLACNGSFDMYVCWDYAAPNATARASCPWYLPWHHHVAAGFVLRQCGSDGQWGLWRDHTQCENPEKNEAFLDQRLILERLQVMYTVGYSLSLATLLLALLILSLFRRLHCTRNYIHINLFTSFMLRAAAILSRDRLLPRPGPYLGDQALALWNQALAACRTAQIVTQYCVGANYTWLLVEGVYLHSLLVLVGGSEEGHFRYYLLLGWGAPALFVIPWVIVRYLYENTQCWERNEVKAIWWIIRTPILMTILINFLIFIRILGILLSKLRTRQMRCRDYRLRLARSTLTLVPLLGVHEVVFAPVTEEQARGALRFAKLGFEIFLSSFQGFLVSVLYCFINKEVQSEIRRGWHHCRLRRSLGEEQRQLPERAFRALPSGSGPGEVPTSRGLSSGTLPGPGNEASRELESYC
Starred links: 1 amine or outer side, 2 acyl side, 3 side chain; linkers in the order of their positions; H or OH if unused. Non-standard residues stand in square brackets, D forms with d. Groups on a side chain read outwards from the residue. No end group written: not given here. *: point of attachment. C18 diacid = O=C(O)CCCCCCCCCCCCCCCCC(=O)*; αMePhe(2-F) = C[C@](N)(Cc1ccccc1F)C(=O)O; γGlu = O=C(O)[C@H](CCC(=O)[*:2])N[*:1]; αMe4Pal = C[C@](N)(Cc1ccncc1)C(=O)O; αMeY = C[C@](N)(Cc1ccc(O)cc1)C(=O)O; 4Pal = N[C@@H](Cc1ccncc1)C(=O)O; αMeL = CC(C)C[C@](C)(N)C(=O)O; αMeS = C[C@](N)(CO)C(=O)O; Orn = NCCC[C@H](N)C(=O)O; AEEA = NCCOCCOCC(=O)O; Aib = CC(C)(N)C(=O)O
Mark each entry True if its EC50 sits below 0.04 nM, and False for all others.

| SUBSTANCE | TEST TARGET | CLASS ASSIGNMENT |
| --- | --- | --- |
| H-Y[Aib]QGT[αMePhe(2-F)]TSD[4Pal]SILLDKK([γGlu-γGlu-C18 diacid])AQ[Aib]AFIEWLQEGGPSSGEPPPSGTEE-NH2 [Example 579] | hGIPR (Homo sapiens) | True |
| H-Y[Aib]QGT[αMePhe(2-F)]TSD[4Pal][αMeS]ILLD[Orn]K([γGlu-γGlu-C18 diacid])AQ[Aib][Orn]FI[dE]YLIEGGPSSGEPPPEGTEE-NH2 [Example 556] | hGIPR (Homo sapiens) | False |
| Y[Aib]QGT[αMePhe(2-F)]TSD[4Pal][αMeS]I[αMeL]LD[Orn]K([γGlu-γGlu-C18 diacid])AQ[Aib]NFI[dE][αMeY]LQEGGPSSGEPPPEGTE-NH2 [Example 526] | hGIPR (Homo sapiens) | True |
| H-Y[Aib]QGT[αMePhe(2-F)]TSD[4Pal]SI[αMeL]LD[Orn]K([AEEA-γGlu-C18 diacid])AQ[αMe4Pal][Orn]FI[dE][αMeY]LIEGGPSSGEPPPESEE-NH2 [Example 753] | hGIPR (Homo sapiens) | True |
| H-Y[Aib]QGT[αMePhe(2-F)]TSD[4Pal][αMeS]I[αMeL]LD[Orn]K([AEEA-γGlu-C18 diacid])AQ[Aib][Orn]FI[dE][αMeY]LIEGGPSSGEPPPEGTGE-NH2 [Example 697] | hGIPR (Homo sapiens) | True |
